# protocolSummary: Measurement of concentration of compounds in blood
# Assay type: in vivo
# conditionNotes: rat, male rats, oral 25 mg/kg, 6 hours after the administration
quantityKind: concentration at 6 h
Please report the result as a number followed by the unit.

q: Reported concentration at 6 h for CC1Cc2c(N3CCN(C)CC3)c(F)c(N)c3c(=O)c(C(=O)O)cn1c23 (stereo not shown) : what is it?
a: 600 ng/mL

* * *

# System: Klebsiella pneumoniae NCTC 9632
# protocolSummary: Antimicrobial test in vitro (MIC, agar plate dilution method)
# Type: cell-based
# Design: unit not given here
# conditionNotes: K. pneumoniae NCTC 9632; 1×10^8 cells/ml
# Method: The antimicrobial activities of the following test compounds were tested by measuring the minimum inhibitory concentration (MIC) by an agar plate dilution method [cf. Chemotherapy, 22, 1126-1128 (1974)]. The test microorganisms were used in a concentration of 1×10^8 cells/ml (optical dencity (O.D.) at 660 m: 0.07-0.16) and 1×10^6 cells/ml (dilution: 100 folds). E: Klebsiella pneumoniae NCTC 9632
quantityKind: minimum inhibitory concentration (MIC)

Use the examples below as a reference point.
CC1Cc2c(N3CCNCC3)c(F)c(N)c3c(=O)c(C(=O)O)cn1c23 (stereo not drawn)    0.2
CC1Cc2c(N3CCC(O)CC3)c(F)c(N)c3c(=O)c(C(=O)O)cn1c23 (stereo not drawn)    0.78
CC1Cc2c(N3CCCC3)c(F)c(N)c3c(=O)c(C(=O)O)cn1c23 (stereo not drawn)    6.25
CC1Cc2c(N3CCOCC3)c(F)c(N)c3c(=O)c(C(=O)O)cn1c23 (stereo not drawn)    0.39
CC1Cc2c(N3CCCCC3)c(F)c(N)c3c(=O)c(C(=O)O)cn1c23 (stereo not drawn)    3.13

In the following, a different compound is considered.
q: Reported minimum inhibitory concentration (MIC) for CC1Cc2c(N3CCN(C)CC3)c(F)c(N)c3c(=O)c(C(=O)O)cn1c23 (stereo not drawn) : what is it?
a: 0.2
